Just for reference, patent US9346815B2 is where these values come from.

biological target: isolated recombinant JAK2 kinase domain (Homo sapiens (Human), UniProt O60674); experiment: JAK2 enzyme assay (Caliper LabChip, peptide phosphorylation); settings: 25 μM ATP
Sequence (O60674 849-1124): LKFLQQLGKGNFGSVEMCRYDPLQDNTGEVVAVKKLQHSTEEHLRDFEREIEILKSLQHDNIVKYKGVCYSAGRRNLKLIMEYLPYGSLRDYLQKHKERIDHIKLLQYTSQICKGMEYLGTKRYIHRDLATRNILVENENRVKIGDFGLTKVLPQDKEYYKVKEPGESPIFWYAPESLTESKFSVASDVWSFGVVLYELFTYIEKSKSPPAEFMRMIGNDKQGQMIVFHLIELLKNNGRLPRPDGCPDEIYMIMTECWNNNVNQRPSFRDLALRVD
pKi: −log10 of the molar value.
assayMetric: pKi

# annotated cases, reported pKi shown
>>> experimentalvalue("CN[C@@H](C)Cn1cc(NC(=O)c2cnn3cccnc23)c(-c2cc(Cl)ccc2OC(F)F)n1 [Example 369]")
8.90
>>> experimentalvalue("O=C(Nc1sc(N2CCC(N3CC(F)C3)CC2)nc1-c1cc(Cl)ccc1OC(F)F)c1cnn2cccnc12 [Example 194]")
8.84
>>> experimentalvalue("O=C(Nc1cn(CC(=O)N2CCC(N3CCCOCC3)CC2)nc1-c1cc(Cl)ccc1OC(F)F)c1cnn2cccnc12 [Example 441]")
8.83

I. CN1CC[C@H]2CN(C(=O)Cn3cc(NC(=O)c4cnn5cccnc45)c(-c4cc(Cl)ccc4OC(F)F)n3)C[C@H]2C1 [Example 53]
II. CCOC(=O)CN(CCn1cc(NC(=O)c2cnn3cccnc23)c(-c2cc(Cl)ccc2OC(F)F)n1)Cc1cccnc1 [Example 362]
III. O=C(Nc1cn(CC(=O)N2CCC(N(CCc3ccccc3)CC(F)(F)F)CC2)nc1-c1cc(Cl)ccc1OC(F)F)c1cnn2cccnc12 [Example 103]
IV. CN1CCN(C(=O)c2ccc(-c3nc(-c4cc(Cl)ccc4OC(F)F)c(NC(=O)c4cnn5cccnc45)s3)cc2)CC1 [Example 259]
query: Sort ascending by pKi. Provide your answer as the labels ordered per the instruction.
result: III, II, I, IV
(III: 8.10, II: 8.49, I: 8.91, IV: 9.25)

###

target: isolated recombinant JAK2 kinase domain (Homo sapiens (Human)); assay: JAK2 enzyme assay (Caliper LabChip, peptide phosphorylation); details: 25 μM ATP
pKi: −log10 of the molar value.
assayMetric: pKi

>>> experimentalvalue("CN(CCc1ccccn1)C1CCN(C(=O)Cn2cc(NC(=O)c3cnn4cccnc34)c(-c3cc(Cl)ccc3OC(F)F)n2)CC1")
8.80
>>> experimentalvalue("O=C(Nc1cn(CC(=O)N2CC=CCC2)nc1-c1cc(Cl)ccc1OC(F)F)c1cnn2cccnc12")
9.43
>>> experimentalvalue("O=C1CN(C2CCN(C(=O)Cn3cc(NC(=O)c4cnn5cccnc45)c(-c4cc(Cl)ccc4OC(F)F)n3)CC2)CCN1")
9.15

a. CN1CCN(CCCN2CCC(n3cc(NC(=O)c4c(N)nn5cccnc45)c(-c4cc(Cl)ccc4OC(F)F)n3)CC2)C1=O
b. COC(=O)[C@@H](N)CCn1cc(NC(=O)c2cnn3cccnc23)c(-c2cc(Cl)ccc2OC(F)F)n1
c. CN(C)CC1CCN(c2nc(-c3cc(Cl)ccc3OC(F)F)c(NC(=O)c3cnn4cccnc34)s2)CC1
d. Nc1nn2cccnc2c1C(=O)Nc1cn([C@H]2CCNC2)nc1-c1cc(Cl)ccc1OC(F)F
query: Would you mind ranking these molecules by ascending pKi? Answer with the labels in sequence, matching the requested order.
result: c, b, d, a
(c: 8.69, b: 9.34, d: 9.70, a: 10.22)

###

target: isolated recombinant JAK1 kinase domain (Homo sapiens (Human), UniProt P23458); assay: JAK1 enzyme assay (Caliper LabChip, peptide phosphorylation); assay type: biochemical
Sequence (P23458 875-1153): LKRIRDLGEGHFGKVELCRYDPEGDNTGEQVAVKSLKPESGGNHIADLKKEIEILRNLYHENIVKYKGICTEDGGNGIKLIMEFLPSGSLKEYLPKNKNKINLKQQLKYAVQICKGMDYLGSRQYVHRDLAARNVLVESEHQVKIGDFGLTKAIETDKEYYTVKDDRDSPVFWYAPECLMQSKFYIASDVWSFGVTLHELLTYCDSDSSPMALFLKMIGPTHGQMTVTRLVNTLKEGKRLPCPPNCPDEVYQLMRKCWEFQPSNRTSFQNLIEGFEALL
Where a name gives a salt, the structure may show the parent alone.
assayMetric: Ki (nM)
Enter your answer as a number in nM; do not include the unit.

query: State its Ki: COC(=O)CNC1CCN(C(=O)Cn2cc(NC(=O)c3cnn4cccnc34)c(-c3cc(Cl)ccc3OC(F)F)n2)CC1 [Example 329, formate]
result: 0.3
